These data points were gathered from patent US20110076293A1.

# experiment: in vitro
# run_conditions: incomplete conversion to triptolide, 48 hr incubation
Kindly supply the reported max. conversion at 48 hr in human plasma by HPLC values for the records listed here.
Numbers only, in %.

CC(C)[C@]12O[C@H]1[C@@H]1O[C@]13[C@]1(O[C@H]1C[C@H]1C4=C(CC[C@@]13C)C(=O)OC4)[C@@H]2OC(=O)OCC(=O)O [PG687] ... 10

Proceed to the following item.
Look up and report measured max. conversion at 48 hr in human plasma by HPLC for this entry: CC(C)[C@]12O[C@H]1[C@@H]1O[C@]13[C@]1(O[C@H]1C[C@H]1C4=C(CC[C@@]13C)C(=O)OC4)[C@@H]2OC(=O)OCC(=O)[O-].[Na+] [PG687Na]
10

* * *

# Tested on: Jurkat human T lymphocyte cell line
# experiment: Apoptosis assay (Annexin V) of compounds incubated with human serum
# run_conditions: incubation time in human serum 48 hours
recorded_endpoint: Conversion, as relative ED50 compared to triptolide (%)
# output: numeric value plus its unit

# annotated cases, reported Conversion, as relative ED50 compared to triptolide (%) shown
CC(C)[C@]12O[C@H]1[C@@H]1O[C@]13[C@]1(O[C@H]1C[C@H]1C4=C(CC[C@@]13C)C(=O)OC4)[C@@H]2OC(=O)CCC(=O)O [PG490-88, triptolide-14-succinate, reference compound] ... 43%
CC(C)[C@]12O[C@H]1[C@@H]1O[C@]13[C@]1(O[C@H]1C[C@H]1C4=C(CC[C@@]13C)C(=O)OC4)[C@@H]2OC(=O)OC(C)(C)C [PG695, Triptolide 14-tert-Butyl Carbonate] ... 100%
CCOC(=O)O[C@@H]1[C@@]2(C(C)C)O[C@H]2[C@@H]2O[C@]23[C@]12O[C@H]2C[C@H]1C2=C(CC[C@@]13C)C(=O)OC2 [PG674, Triptolide 14-Ethyl Carbonate] ... 100%

Proceed to the following item.
Look up and report measured Conversion, as relative ED50 compared to triptolide (%) for this entry: CC(C)[C@]12O[C@H]1[C@@H]1O[C@]13[C@]1(O[C@H]1C[C@H]1C4=C(CC[C@@]13C)C(=O)OC4)[C@@H]2OC(=O)O[C@H](C)C(=O)OC(C)(C)C
40%

* * *

Kindly supply the reported IL-2 pg/mL at given concentration (nM) values for the records listed here.
# System: IL-2 production in Jurkat human T lymphocyte cells
# experiment: IL-2 production assay for activity of compounds incubated with human serum
# run_conditions: Table 7; Jurkat cells (48 hrs); 10 nM
Answers are plain numbers, in pg/mL.

# annotated cases, reported IL-2 pg/mL at given concentration (nM) shown
CCNC(=O)O[C@@H]1[C@@]2(C(C)C)O[C@H]2[C@@H]2O[C@]23[C@]12O[C@H]2C[C@H]1C2=C(CC[C@@]13C)C(=O)OC2 [PG666, Triptolide 14-Ethyl Carbamate] ... 819.1
CC(C)[C@]12O[C@H]1[C@@H]1O[C@]13[C@]1(O[C@H]1C[C@H]1C4=C(CC[C@@]13C)C(=O)OC4)[C@@H]2OC(=O)CCC(=O)O [PG490-88, triptolide-14-succinate, reference compound] ... 605.1
CC(C)[C@]12O[C@H]1[C@@H]1O[C@]13[C@]1(O[C@H]1C[C@H]1C4=C(CC[C@@]13C)C(=O)OC4)[C@@H]2O [PG490, Triptolide] ... 556.1

Proceed to the following item.
Look up and report measured IL-2 pg/mL at given concentration (nM) for this entry: CC(C)[C@]12O[C@H]1[C@@H]1O[C@]13[C@]1(O[C@H]1C[C@H]1C4=C(CC[C@@]13C)C(=O)OC4)[C@@H]2OC(=O)NCCN(C)C [PG688]
796.3
